Target: ΔF508-CFTR (Homo sapiens, UniProt P13569, DEL508-508)
Construct: host or cells: CFBE41o-, doxycycline-inducible
Sequence (P13569 with tags, fused parts or gaps DEL508-508): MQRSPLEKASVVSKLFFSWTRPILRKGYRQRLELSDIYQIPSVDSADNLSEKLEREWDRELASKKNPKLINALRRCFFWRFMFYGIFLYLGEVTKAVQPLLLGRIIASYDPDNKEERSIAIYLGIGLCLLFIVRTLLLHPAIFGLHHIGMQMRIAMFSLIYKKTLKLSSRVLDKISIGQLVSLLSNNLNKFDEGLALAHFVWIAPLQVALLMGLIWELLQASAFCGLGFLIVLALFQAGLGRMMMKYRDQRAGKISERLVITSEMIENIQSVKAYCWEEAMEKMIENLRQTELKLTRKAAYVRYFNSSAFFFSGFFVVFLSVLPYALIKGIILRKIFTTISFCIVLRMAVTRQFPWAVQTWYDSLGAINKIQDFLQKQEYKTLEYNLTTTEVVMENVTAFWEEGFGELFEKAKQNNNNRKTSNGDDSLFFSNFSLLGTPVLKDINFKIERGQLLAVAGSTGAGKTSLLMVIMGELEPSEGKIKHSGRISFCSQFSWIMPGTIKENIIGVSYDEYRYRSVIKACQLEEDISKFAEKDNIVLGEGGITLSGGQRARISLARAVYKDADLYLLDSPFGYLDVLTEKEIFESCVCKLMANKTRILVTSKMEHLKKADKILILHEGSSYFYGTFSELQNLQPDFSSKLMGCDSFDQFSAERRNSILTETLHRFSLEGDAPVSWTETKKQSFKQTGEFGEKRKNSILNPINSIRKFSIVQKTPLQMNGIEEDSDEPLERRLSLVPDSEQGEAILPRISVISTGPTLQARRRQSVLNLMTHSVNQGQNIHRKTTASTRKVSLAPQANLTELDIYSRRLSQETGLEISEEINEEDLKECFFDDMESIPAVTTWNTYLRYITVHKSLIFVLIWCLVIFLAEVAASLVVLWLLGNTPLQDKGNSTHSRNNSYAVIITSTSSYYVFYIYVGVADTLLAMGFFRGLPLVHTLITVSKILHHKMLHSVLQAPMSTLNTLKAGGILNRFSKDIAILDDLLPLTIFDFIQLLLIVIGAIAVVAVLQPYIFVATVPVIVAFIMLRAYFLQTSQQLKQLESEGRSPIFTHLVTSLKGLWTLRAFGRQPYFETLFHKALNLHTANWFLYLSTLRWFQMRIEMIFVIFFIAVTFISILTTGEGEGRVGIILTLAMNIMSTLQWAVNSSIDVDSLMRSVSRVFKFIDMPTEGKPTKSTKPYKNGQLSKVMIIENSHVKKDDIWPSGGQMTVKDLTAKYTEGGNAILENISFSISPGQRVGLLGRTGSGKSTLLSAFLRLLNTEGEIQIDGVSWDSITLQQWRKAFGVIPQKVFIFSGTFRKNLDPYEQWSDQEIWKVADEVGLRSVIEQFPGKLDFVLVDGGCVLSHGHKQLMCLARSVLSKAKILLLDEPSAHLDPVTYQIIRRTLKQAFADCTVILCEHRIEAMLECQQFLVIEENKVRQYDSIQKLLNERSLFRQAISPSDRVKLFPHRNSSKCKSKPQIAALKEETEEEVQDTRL
Assay: CFTR cell surface levels using HRP-tagged ΔF508-CFTR expressing CFBE cells, in the presence of a co-corrector
Format: cell-based
Settings: HRP-tagged ΔF508-CFTR expressing CFBE cells, in the presence of 3 μM co-corrector
metric: % Activation (%)
# number only, unit % dropped from output

Solved entries (count: 3):
* CS(=O)(=O)N1CCN(c2cc(C(=O)O)nc3c2c(C2CCC2)nn3-c2ccccc2)CC1 | 320.1
* CS(=O)(=O)C1(COc2cc(C(=O)O)nc3c2c(C2CCC2)nn3-c2ccccc2)CCOCC1 | 126.25
* COC1CCN(CC2CCN(c3cc(C(=O)O)nc4c3c(C3CCC3)nn4-c3ccccc3)CC2)CC1 | 457.1

Okay, now this molecule:
The recorded % Activation for entry CCCOCCN1CCN(c2cc(C(=O)O)nc3c2c(C2CCC2)nn3-c2ccccc2)CC1 equals 310.65

* * *

Target: ΔF508-CFTR (Homo sapiens, UniProt P13569, DEL508-508)
Construct: host or cells: CFBE41o-, doxycycline-inducible
Assay: CFTR cell surface levels using HRP-tagged ΔF508-CFTR expressing CFBE cells, in the presence of a co-corrector
Type: cell-based
Settings: HRP-tagged ΔF508-CFTR expressing CFBE cells, in the presence of 3 μM co-corrector
metric: % Activation (%)
# number only, unit % dropped from output

Solved entries (count: 10):
* COCC1CCCN(c2cc(C(=O)O)nc3c2c(C2CCC2)nn3-c2ccccc2)C1 (stereo not shown) [compound 373] | 306.9
* O=C(O)c1cc(N2CCC(N3CCN(C4CC4)CC3)CC2)c2c(C3CCC3)nn(-c3ccc(F)cc3)c2n1 [compound 886] | 551.77
* Cc1nn(C2CCCCC2)c2nc(C(=O)O)cc(-c3ccc(N4CCOCC4)nc3)c12 [compound 74] | 257.2
* O=C(O)c1cc(N2CCC3C(CCN3C3CCC3)C2)c2c(C3CCC3)nn(-c3ccc(F)cc3)c2n1 (stereo not shown) [compound 901] | 432.3
* COC1CCC(Oc2cc(C(=O)O)nc3c2c(C)nn3-c2ccccc2)CC1 (stereo not shown) [compound 376] | 289.4
* O=C(O)c1cc(N2CCN3C[C@H](O)C[C@H]3C2)c2c(C3CCC3)nn(-c3ccccc3)c2n1 [compound 475] | 163.35
* O=C(O)c1cc(N2CCC([C@H](F)CO)CC2)c2c(C3CCC3)nn(-c3ccccc3)c2n1 [compound 457] | 430.85
* COC(=O)N1CC(c2nn(C3CCCCC3)c3nc(C(=O)O)cc(-c4cnc(N(C)C)nc4)c23)C1 [compound 166] | 241.5
* COC1CCN(c2cc(C(=O)O)nc3c2c(C(C)C)nn3-c2ccc(F)cc2)CC1 [compound 393] | 454.3
* CN1CCN(Cc2cc(C(=O)O)nc3c2c(C2CCC2)nn3-c2ccc(F)cc2)CC1 [compound 858] | 168.6

The recorded % Activation for entry COC1CN(c2cccc(-n3nc(C(C)C)c4c(-c5ccc(N6CCOCC6)cc5)cc(C(=O)O)nc43)c2)C1 [compound 164] equals 608.5

The recorded % Activation for entry O=C(O)c1cc(N2CCC3(CCNC3=O)C2)c2c(C3CCC3)nn(-c3ccccc3)c2n1 (stereo not shown) [compound 537] equals 191.2

The recorded % Activation for entry Cc1cccc(-n2nc(C)c3c(-c4ccc(N5CCOCC5)cc4)cc(C(=O)O)nc32)c1 [compound 13] equals 363.7

The recorded % Activation for entry O=C(O)c1cc(N2CCC(F)CC2)c2c(C3CCC3)nn(-c3ccccc3)c2n1 [compound 444] equals 282.8

The recorded % Activation for entry Cc1nn(-c2ccccc2)c2nc(C(=O)O)cc(OC3CC4(COC4)C3)c12 [compound 344] equals 218.25

The recorded % Activation for entry O=C(O)c1cc(OC2CCC2)c2c(C3CCC3)nn(-c3ccccc3)c2n1 [compound 585] equals 245.3

* * *

Biological target: ΔF508-CFTR (Homo sapiens, UniProt P13569, DEL508-508)
Construct: host or cells: CFBE41o-, doxycycline-inducible
Test: CFTR cell surface levels using HRP-tagged ΔF508-CFTR expressing CFBE cells, in the presence of a co-corrector
Type: cell-based
Conditions: HRP-tagged ΔF508-CFTR expressing CFBE cells, in the presence of 3 μM co-corrector
Quick reference for % Activation among some compounds
Give your result as the value with the unit written after it.

The compound O=C(O)c1cc(N2CC[C@@H](N3CCOCC3)C2)c2c(C3CCC3)nn(-c3ccccc3)c2n1 , tested on ΔF508-CFTR (Homo sapiens, UniProt P13569, DEL508-508), showed % Activation of 300.47%

The compound O=C(O)c1cc(OC2CC3(COC3)C2)c2c(C3CCC3)nn(-c3ccccc3)c2n1 , tested on ΔF508-CFTR (Homo sapiens, UniProt P13569, DEL508-508), showed % Activation of 235.15%

The compound O=C(O)c1cc(OC2CCCC2)c2c(C3CCC3)nn(-c3ccccc3)c2n1 , tested on ΔF508-CFTR (Homo sapiens, UniProt P13569, DEL508-508), showed % Activation of 342.5%

* * *

Biological target: ΔF508-CFTR (Homo sapiens, UniProt P13569, DEL508-508)
Construct: host or cells: CFBE41o-, doxycycline-inducible
Test: CFTR cell surface levels using HRP-tagged ΔF508-CFTR expressing CFBE cells, in the presence of a co-corrector
Assay type: cell-based
Conditions: HRP-tagged ΔF508-CFTR expressing CFBE cells, in the presence of 3 μM co-corrector
Quick reference for % Activation among some compounds
# number only, unit % dropped from output

• C[C@H]1C[C@H](c2nn(-c3ccccc3)c3nc(C(=O)O)cc(-c4ccc(N5CCC(C#N)CC5)nc4)c32)C1 [compound 551] = 424.35
• CC1(C)CN(C2CCN(c3cc(C(=O)O)nc4c3c(C3CCC3)nn4-c3ccc(F)cc3)CC2)CCO1 [compound 876] = 562.35
• CN1CC[C@@H](Oc2cc(C(=O)O)nc3c2c(C2CCC2)nn3-c2ccccc2)C1 [compound 650] = 193.6

The recorded % Activation for entry Cc1nn(-c2ccccc2)c2nc(C(=O)O)cc(O[C@H]3C[C@@H](N(C)C)C3)c12 [compound 340] equals 146

The recorded % Activation for entry O=C(O)c1cc(N2CCC[C@@H](N3CCCC3=O)C2)c2c(C3CCC3)nn(-c3ccccc3)c2n1 [compound 697] equals 217.3

The recorded % Activation for entry COCCN1CCN(c2ccc(-c3cc(C(=O)O)nc4c3c(C3CCC3)nn4C3CCCCC3)cn2)CC1 [compound 878] equals 391.3

The recorded % Activation for entry Cc1nn(-c2ccccc2)c2nc(C(=O)O)cc(N3CCCN(S(C)(=O)=O)CC3)c12 [compound 320] equals 166.3

* * *

Target: ΔF508-CFTR (Homo sapiens, UniProt P13569, DEL508-508)
Construct: host or cells: CFBE41o-, doxycycline-inducible
Test: CFTR cell surface levels using HRP-tagged ΔF508-CFTR expressing CFBE cells, intrinsic corrector capacity
Assay type: cell-based
Settings: HRP-tagged ΔF508-CFTR expressing CFBE cells; intrinsic corrector capacity (no co-corrector); 33° C., 20 hours; read-out: EC50
Description: Measuring CFTR Cell Surface Levels Using HRP-Tagged AF508-CFTR Expressing CFBE Cells The HRP-tagged AF508-CFTR cell assay measures the expression of CFTR-ΔF508 at the plasma membrane. […] When HRP-tagged AF508-CFTR is present at the plasma membrane, the HRP enzyme activity can be measured. The amount of CFTR-ΔF508 that can be rescued to the plasma membrane is correlated with the amount of functional enzyme that can be measured. […]
pEC50: −log10 of the molar value.
# pEC50 >= 6 gives Condition met, anything below gives Condition not met

These recorded examples may help you get a feel for the data.
• COCC1(F)CCCN(c2cc(C(=O)O)nc3c2c(C2CCC2)nn3-c2ccccc2)C1 (stereo not shown) = Condition met
• O=C(O)c1cc(N2CCC(N3CCOCC3)CC2)c2c(C3CCC3)nn(-c3cccc(OC(F)F)c3)c2n1 = Condition met
• O=C(O)c1cc(N2CCC(N3CCOCC3)CC2)c2c(C3CCC3)nn(-c3ccc(F)cc3)c2n1 = Condition met

In: For this compound, is measured pEC50 6 or higher? O=C(O)c1cc(N2CCC(N3CCOCC3)CC2)c2c(C3CCC3)nn(-c3ccc(C(F)(F)F)cc3)c2n1
Out: Condition met

In: For this compound, is measured pEC50 6 or higher? C[C@@H](CN(C)C)Oc1cc(C(=O)O)nc2c1c(C1CCC1)nn2-c1ccccc1
Out: Condition not met

In: For this compound, is measured pEC50 6 or higher? CC(C)CN1C[C@@H]2CN(c3cc(C(=O)O)nc4c3c(C3CCC3)nn4-c3ccccc3)C[C@@H]2C1
Out: Condition not met

In: For this compound, is measured pEC50 6 or higher? COCC1CCN(c2cc(C(=O)O)nc3c2c(C2CCC2)nn3-c2ccnc(C3CCOCC3)c2)CC1
Out: Condition met
